System: MCF7
TEST_PROTOCOL: Cell proliferation assay (CellTiter-Glo, 96 h), MCF7
Format: cell-based
CONDITION_CONTEXT: Homo sapiens; MCF7 cells
PROPERTY_LABEL: IC50 (nM)
Give the quantity in nM, number only.

Reference set (3 entries):
| MOLECULE | IC50 (nM) |
| --- | --- |
| Cc1ccc(-c2ccc(Cl)cc2)c(C)c1C1=C(O)C2(CCCCC2)OC1=O | 624 |
| Cc1ccc(-c2ccc(Cl)cc2)cc1C1=C(O)CC(C)(C)NC1=O | 1260 |
| Cc1ccc(-c2ccc(Cl)cc2)cc1C1=C(O)C(C)(C)CNC1=O | 1720 |

Request: Which IC50 is reported for this molecule? Cc1ccc(-c2ccc(Cl)cc2)cc1-c1c(O)c2ccc(Cl)cc2[nH]c1=O
Result: 299

Request: Which IC50 is reported for this molecule? Cc1cc(C)c(-c2ccc(Cl)cc2)c(C)c1C1=C(O)C2(CCCCCC2)OC1=O
Result: 762

Request: Which IC50 is reported for this molecule? Cc1ccc(-c2ccc(Cl)c(Cl)c2)cc1-c1c(O)c2ccc(Cl)cc2[nH]c1=O
Result: 1100

Request: Which IC50 is reported for this molecule? COC1CCC2(CC1)OC(=O)C(c1cc(-c3ccc(Cl)cc3)c(C)cc1C)=C2O (stereo not drawn)
Result: 121

Request: Which IC50 is reported for this molecule? Cc1cc(C)c(-c2ccc(Cl)cc2)c(C)c1C1=C(O)C2(CCCCC2)OC1=O
Result: 724

Request: Which IC50 is reported for this molecule? Cc1ccc(-c2ccc(Cl)cc2)cc1C1=C(O)C2(CCC(OCC(F)(F)F)CC2)OC1=O (stereo not drawn)
Result: 246

* * *

MEASURED_TARGET: human ACC2 (acetyl-coenzyme A carboxylase 2) (Homo sapiens, UniProt O00763)
Sequence (O00763 27-2458 limits assumed): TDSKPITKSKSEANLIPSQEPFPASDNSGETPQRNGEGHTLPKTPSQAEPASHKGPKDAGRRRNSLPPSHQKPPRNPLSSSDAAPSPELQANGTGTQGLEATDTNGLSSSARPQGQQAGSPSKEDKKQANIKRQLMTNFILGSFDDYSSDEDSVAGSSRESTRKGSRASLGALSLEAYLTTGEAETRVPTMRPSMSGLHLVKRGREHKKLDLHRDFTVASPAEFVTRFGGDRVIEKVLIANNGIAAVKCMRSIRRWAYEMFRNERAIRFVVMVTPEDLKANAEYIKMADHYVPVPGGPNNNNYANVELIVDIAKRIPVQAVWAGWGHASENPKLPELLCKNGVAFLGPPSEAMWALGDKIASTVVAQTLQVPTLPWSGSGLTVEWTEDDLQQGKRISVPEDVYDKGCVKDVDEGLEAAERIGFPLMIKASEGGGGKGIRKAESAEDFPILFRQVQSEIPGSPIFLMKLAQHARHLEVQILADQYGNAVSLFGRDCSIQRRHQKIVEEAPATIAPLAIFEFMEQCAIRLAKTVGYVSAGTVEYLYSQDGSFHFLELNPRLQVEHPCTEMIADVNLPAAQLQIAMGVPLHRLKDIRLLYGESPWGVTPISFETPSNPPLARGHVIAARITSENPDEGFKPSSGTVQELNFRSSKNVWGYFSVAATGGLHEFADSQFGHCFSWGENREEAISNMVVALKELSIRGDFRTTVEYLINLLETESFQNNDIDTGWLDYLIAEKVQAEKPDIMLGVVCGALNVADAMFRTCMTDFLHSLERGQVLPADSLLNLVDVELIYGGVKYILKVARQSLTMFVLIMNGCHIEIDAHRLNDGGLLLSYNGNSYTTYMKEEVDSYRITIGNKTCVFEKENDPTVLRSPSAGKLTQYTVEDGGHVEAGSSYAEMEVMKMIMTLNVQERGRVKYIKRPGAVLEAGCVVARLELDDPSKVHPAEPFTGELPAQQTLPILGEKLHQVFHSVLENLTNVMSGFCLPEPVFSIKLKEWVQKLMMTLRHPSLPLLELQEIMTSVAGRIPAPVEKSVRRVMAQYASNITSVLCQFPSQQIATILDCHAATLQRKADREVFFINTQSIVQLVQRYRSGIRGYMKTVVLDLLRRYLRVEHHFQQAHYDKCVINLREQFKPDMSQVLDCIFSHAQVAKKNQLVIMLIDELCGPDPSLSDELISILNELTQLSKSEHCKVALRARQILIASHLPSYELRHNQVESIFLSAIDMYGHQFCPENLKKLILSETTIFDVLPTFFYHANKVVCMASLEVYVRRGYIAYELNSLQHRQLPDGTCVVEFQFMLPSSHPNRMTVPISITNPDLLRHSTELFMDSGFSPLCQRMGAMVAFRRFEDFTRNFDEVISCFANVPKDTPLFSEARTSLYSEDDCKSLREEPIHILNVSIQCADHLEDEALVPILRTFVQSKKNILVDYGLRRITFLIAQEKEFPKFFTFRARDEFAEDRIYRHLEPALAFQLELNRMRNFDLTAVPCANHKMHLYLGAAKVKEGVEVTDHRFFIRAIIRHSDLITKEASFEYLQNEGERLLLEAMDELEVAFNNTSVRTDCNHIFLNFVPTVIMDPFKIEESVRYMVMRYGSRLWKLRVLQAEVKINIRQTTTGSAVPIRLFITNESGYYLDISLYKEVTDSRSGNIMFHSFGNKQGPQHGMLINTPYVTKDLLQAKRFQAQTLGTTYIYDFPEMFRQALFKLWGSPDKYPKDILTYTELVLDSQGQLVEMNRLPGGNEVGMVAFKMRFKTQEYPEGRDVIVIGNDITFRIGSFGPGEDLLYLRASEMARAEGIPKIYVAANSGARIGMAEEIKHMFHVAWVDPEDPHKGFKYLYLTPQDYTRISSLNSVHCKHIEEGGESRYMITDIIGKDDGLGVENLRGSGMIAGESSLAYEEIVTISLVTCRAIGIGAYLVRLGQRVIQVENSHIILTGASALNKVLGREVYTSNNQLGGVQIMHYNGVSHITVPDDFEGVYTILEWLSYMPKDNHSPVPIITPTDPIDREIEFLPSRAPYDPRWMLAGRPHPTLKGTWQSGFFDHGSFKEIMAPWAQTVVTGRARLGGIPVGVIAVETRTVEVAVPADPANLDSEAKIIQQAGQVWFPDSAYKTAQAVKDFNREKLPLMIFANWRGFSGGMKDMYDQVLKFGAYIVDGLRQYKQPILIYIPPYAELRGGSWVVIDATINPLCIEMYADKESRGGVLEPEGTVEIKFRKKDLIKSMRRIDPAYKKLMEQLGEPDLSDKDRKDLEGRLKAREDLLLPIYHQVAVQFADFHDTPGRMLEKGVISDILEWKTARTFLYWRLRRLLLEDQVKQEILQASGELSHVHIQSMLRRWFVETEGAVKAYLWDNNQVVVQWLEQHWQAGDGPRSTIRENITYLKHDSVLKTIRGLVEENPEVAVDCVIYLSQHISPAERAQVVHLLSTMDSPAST
TEST_PROTOCOL: Human ACC2 enzyme assay, Assay B2 (ADP-Glo);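 further: human ACC2 activity read as ADP product, detected by luciferase glow luminescence after residual ATP removal, enzyme near 2 ng/µl in linear range, detection steps at 22 °C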
PROPERTY_LABEL: IC50 (µM)
Give the quantity in µM, number only.

Reference set (3 entries):
| COMPOUND | RECORDED_MEASUREMENT |
| --- | --- |
| Cc1cc(F)c(-c2ccc(Cl)cc2)cc1C1=C(O)C2(CCC(C(F)(F)F)CC2)NC1=O (mixture of isomers) | 2.47 |
| Cc1ccc(-c2ccc(Cl)cc2)c(C)c1C1=C(O)C2(CCC(OCC(F)(F)F)CC2)OC1=O (centres unmarked) | 2.82 |
| Cc1ccc(-c2ccc(Cl)cc2)c(C)c1C1=C(O)C2(CCC3(CC2)OCCO3)NC1=O | 2.92 |

Request: Which IC50 is reported for this compound? Cc1ccc(-c2ccc(Cl)cc2)c(C)c1C1=C(O)[C@]2(CC[C@H](OCC(F)(F)F)CC2)NC1=O
Result: 0.976

* * *

MEASURED_TARGET: acetyl-CoA carboxylase 2 (ACC2) (Homo sapiens, UniProt O00763)
Sequence (O00763 39-2458 limits assumed): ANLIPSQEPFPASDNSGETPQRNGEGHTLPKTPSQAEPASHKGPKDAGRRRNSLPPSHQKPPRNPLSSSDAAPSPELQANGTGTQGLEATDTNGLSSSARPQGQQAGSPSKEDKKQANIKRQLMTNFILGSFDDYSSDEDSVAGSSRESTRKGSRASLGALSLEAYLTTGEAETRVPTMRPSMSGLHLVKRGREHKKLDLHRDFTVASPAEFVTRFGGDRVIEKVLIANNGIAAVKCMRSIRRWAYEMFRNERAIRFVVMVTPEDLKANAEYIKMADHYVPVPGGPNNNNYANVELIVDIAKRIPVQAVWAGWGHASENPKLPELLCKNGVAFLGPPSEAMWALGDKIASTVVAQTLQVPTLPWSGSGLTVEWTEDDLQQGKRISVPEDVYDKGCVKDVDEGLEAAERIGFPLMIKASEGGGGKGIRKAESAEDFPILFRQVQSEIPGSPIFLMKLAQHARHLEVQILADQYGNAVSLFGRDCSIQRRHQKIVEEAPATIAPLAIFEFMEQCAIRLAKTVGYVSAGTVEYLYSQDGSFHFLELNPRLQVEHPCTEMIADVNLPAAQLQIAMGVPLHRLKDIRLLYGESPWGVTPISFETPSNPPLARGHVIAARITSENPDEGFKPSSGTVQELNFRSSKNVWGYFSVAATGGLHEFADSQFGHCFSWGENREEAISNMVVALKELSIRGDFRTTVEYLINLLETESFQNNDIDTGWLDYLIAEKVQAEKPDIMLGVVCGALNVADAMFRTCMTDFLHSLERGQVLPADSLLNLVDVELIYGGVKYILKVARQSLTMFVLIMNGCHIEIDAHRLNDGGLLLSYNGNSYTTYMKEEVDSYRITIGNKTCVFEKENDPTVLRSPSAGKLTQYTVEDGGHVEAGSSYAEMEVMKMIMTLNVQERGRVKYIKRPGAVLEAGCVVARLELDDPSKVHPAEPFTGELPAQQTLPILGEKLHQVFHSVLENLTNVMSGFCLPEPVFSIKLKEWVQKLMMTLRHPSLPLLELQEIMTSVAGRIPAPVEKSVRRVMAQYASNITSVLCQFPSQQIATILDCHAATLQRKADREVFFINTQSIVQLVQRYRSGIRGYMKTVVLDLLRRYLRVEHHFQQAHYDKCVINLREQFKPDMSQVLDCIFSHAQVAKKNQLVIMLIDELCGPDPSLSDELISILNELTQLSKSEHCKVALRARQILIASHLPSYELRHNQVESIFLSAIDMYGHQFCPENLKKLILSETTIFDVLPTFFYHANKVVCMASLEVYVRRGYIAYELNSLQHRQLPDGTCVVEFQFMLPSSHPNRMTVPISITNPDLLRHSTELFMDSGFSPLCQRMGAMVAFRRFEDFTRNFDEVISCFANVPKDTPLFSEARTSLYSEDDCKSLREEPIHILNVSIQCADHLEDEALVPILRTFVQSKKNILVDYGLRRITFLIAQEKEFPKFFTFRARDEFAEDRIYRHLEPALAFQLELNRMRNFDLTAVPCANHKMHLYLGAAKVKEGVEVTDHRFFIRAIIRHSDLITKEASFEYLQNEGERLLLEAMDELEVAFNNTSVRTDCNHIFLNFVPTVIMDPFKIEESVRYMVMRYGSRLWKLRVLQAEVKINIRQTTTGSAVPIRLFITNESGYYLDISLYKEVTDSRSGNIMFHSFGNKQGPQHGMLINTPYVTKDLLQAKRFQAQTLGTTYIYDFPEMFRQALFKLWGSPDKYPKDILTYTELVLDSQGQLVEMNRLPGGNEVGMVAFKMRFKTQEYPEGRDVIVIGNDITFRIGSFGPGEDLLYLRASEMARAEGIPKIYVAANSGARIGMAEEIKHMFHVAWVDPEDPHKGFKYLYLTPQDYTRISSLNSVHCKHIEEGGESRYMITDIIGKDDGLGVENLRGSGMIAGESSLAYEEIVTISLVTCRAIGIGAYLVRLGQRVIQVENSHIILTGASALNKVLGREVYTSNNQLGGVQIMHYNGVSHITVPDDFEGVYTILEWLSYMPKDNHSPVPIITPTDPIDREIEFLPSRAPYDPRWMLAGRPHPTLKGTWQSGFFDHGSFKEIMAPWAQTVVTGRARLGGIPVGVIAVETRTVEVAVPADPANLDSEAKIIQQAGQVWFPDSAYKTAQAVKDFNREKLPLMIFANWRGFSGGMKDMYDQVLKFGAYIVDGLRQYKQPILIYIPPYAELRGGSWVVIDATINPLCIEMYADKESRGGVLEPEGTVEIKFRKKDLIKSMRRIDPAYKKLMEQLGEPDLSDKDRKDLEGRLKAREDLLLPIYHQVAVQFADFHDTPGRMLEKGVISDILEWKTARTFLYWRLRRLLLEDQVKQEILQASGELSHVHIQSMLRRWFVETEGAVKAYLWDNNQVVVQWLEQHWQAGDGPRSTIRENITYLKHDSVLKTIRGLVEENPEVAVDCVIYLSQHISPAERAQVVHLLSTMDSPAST
PROPERTY_LABEL: pIC50
Lab note — pIC50 values are minus log10 of concentrations in M.

Reference set (4 entries):
| SMILES | pIC50 |
| --- | --- |
| COC[C@H]1CC[C@]2(CC1)NC(=O)C(c1cc(-c3ccc(F)c(F)c3)ccc1C)=C2O | 5.41 |
| CO[C@H]1CC[C@]2(CC1)NC(=O)C(c1cc(-c3ccc(Cl)cc3Cl)ccc1C)=C2O | 5.99 |
| CO[C@H]1CC[C@]2(CC1)NC(=O)C(c1cc(-c3ccc(Cl)cc3)c(Cl)cc1C)=C2O | 6.99 |
| CO[C@H]1CC[C@]2(CC1)NC(=O)C(c1cc(-c3ccc(Cl)c(F)c3)c(Cl)cc1C)=C2O | 6.46 |

Request: GET /values?readout=pIC50&system=acetyl-CoA carboxylase 2 (ACC2) (Homo sapiens, UniProt O00763)&item= O=C1NC2(CCCCC2)C(O)=C1c1cc(-c2ccc(Cl)cc2)ccc1Cl
Result: 5.82

Request: GET /values?readout=pIC50&system=acetyl-CoA carboxylase 2 (ACC2) (Homo sapiens, UniProt O00763)&item= CC1(C)CCC2(CC1)NC(=O)C(c1cc(-c3ccc(Cl)cc3)ccc1Cl)=C2O
Result: 6.20

Request: GET /values?readout=pIC50&system=acetyl-CoA carboxylase 2 (ACC2) (Homo sapiens, UniProt O00763)&item= CO[C@H]1CC[C@]2(CC1)NC(=O)C(c1cc(-c3ccc(Cl)c(F)c3)ccc1C)=C2O;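 further: ADP generated by ACC2 quantified via competitive time-resolved FRET between europium cryptate anti-ADP antibody and d2-tagged ADP, enzyme kept in linear range near 0.6 ng/µl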
Result: 6.16
